All figures here come from ChEMBL document CHEMBL1629628.

test system: Staphylococcus aureus; assay: Antimicrobial activity against methicillin-resistant Staphylococcus aureus ST398 expressing cfr, fexA, erm(A), tet(M) and mecA genes; type: functional
reported_endpoint: MIC

Please give MIC, item by item, for the list that follows.
1. O=C(N[C@H](CO)[C@H](O)c1ccc([N+](=O)[O-])cc1)C(Cl)Cl
2. CN(C)[C@@H]1C(O)=C(C(N)=O)C(=O)[C@@]2(O)C(O)=C3C(=O)c4c(O)cccc4[C@@](C)(O)[C@H]3C[C@@H]12
3. CC1=C\[C@@H](O)CC(=O)Cc2nc(co2)C(=O)N2CCC=C2C(=O)O[C@H](C(C)C)[C@H](C)/C=C/C(=O)NC\C=C\1
4. Cc1onc(-c2ccccc2)c1C(=O)N[C@@H]1C(=O)N2[C@@H]1SC(C)(C)[C@@H]2C(=O)O
5. CS(=O)(=O)c1ccc([C@@H](O)[C@@H](CF)NC(=O)C(Cl)Cl)cc1
6. CC[C@H]1OC(=O)[C@H](C)[C@@H](O[C@H]2C[C@@](C)(OC)[C@@H](O)[C@H](C)O2)[C@H](C)[C@@H](O[C@@H]2O[C@H](C)C[C@H](N(C)C)[C@H]2O)[C@](C)(O)C[C@@H](C)C(=O)[C@H](C)[C@@H](O)[C@]1(C)O
7. C=C[C@]1(C)C[C@@H](OC(=O)CSCCN(CC)CC)[C@]2(C)[C@H](C)CC[C@]3(CCC(=O)[C@H]32)[C@@H](C)[C@@H]1O

A.
["≥ 128 µg/mL", "64 µg/mL", "128 µg/mL", "≥ 32 µg/mL", "≥ 128 µg/mL", "≥ 64 µg/mL", "≥ 128 µg/mL"]

Q. Which MIC reading was recorded for the compound CCC[C@@H]1C[C@@H](C(=O)N[C@@H]([C@H]2O[C@H](SC)[C@H](O)[C@@H](O)[C@H]2O)[C@H](C)Cl)N(C)C1 ?
A. ≥ 64 µg/mL
